// data source = patent US6828320B2

- Measurement Target: c-erbB-2 (baculovirus expressed, recombinant intracellular domain) (Homo sapiens, UniProt P04626)
- Construct: baculovirus expressed, recombinant constructs of the intracellular domains of c-erbB-2 and c-erbB-4; made in house
- Assay Text: Substrate phosphorylation assay, c-erbB-2
- Assay type: biochemical
- Setup Conditions: read-out: Substrate Phosphorylation erbB-2
Where a name gives a salt, the structure may show the parent alone.
Measure: IC50 (nM)

Some solved entries appear below for comparison.
{"columns": ["Compound", "Unit Label", "Observed Measurement"],
 "data": [
  ["Cc1nnc(-c2ccc3ncnc(Nc4ccc(OCc5cccc(F)c5)c(Cl)c4)c3c2)o1 [Example 26, hydrochloride]", "nM", 7],
  ["Cc1nnc(-c2ccc3ncnc(Nc4ccc5c(cnn5Cc5ccccc5)c4)c3c2)o1 [Example 41, hydrochloride]", "nM", 10],
  ["Cc1nnc(-c2ccc3ncnc(Nc4ccc5c(cnn5Cc5ccccn5)c4)c3c2)o1 [Example 23, hydrochloride]", "nM", 1]
]}

[a] Cn1nncc1-c1ccc2ncnc(Nc3ccc(OCc4ccccc4)cc3)c2c1
[b] Cc1nnc(-c2ccc3ncnc(Nc4ccc5c(cnn5Cc5cccc(F)c5F)c4)c3c2)o1 [Example 24, hydrochloride]
[c] Cc1cc(-c2ccc3ncnc(Nc4ccc(OCc5ccccc5)cc4)c3c2)on1 [Example 47, hydrochloride]
[d] Cc1nnc(-c2ccc3ncnc(Nc4ccc(OCc5ccccc5F)c(Cl)c4)c3c2)o1 [Example 25, hydrochloride]
[e] Cc1nnc(-c2ccc3ncnc(Nc4ccc(OCc5ccccc5)cc4)c3c2)o1 [Example 27, hydrochloride]
# rank_down: sort by IC50, max first Hello, could you send the labels back in the order asked? Thank you.
c, a, d, e, b

[A] Cn1cncc1-c1ccc2ncnc(Nc3ccc(OCc4ccccc4)cc3)c2c1
[B] O=Cc1ccc(-c2ccc3ncnc(Nc4ccc(OCc5ccccc5)cc4)c3c2)o1
[C] c1ccc(COc2ccc(Nc3ncnc4ccc(-c5ccco5)cc34)cc2)cc1
[D] Cc1nnc(-c2ccc3ncnc(Nc4ccc(S(=O)(=O)c5ccccc5)cc4)c3c2)o1 [Example 30, hydrochloride]
# rank_down: sort by IC50, max first Hello, could you send the labels back in the order asked? Thank you.
A, C, B, D

[a] c1ccc(Cn2ncc3cc(Nc4ncnc5ccc(-c6noc(Cc7cccnc7)n6)cc45)ccc32)cc1
[b] c1ccc(COc2ccc(Nc3ncnc4ccc(-c5cccs5)cc34)cc2)cc1
Could you tell me which of these two has the smaller IC50 figure? First: a Second: b Your choice should be expressed through its label.
b

[A] c1ccc(COc2ccc(Nc3ncnc4ccc(-c5ccc(C6OCCO6)o5)cc34)cc2)cc1
[B] Cc1nocc1-c1ccc2ncnc(Nc3ccc(OCc4ccccc4)cc3)c2c1
Consider A and B . Which of these has its IC50 at a higher number? Your choice should be expressed through its label.
B

====

- Test system: Calu3-lung tumour cell line
- Assay Text: Cell proliferation assay, Calu3
- Type: cell-based, human
- Setup Conditions: Homo sapiens, Calu-3, 96 h; same methodology, 4 days
Structures can show the parent of a compound that is named as a salt.
Measure: IC50 (µM)

{"columns": ["Molecule", "IC50 / µM"],
 "data": [
  ["Cn1cncc1-c1ccc2ncnc(Nc3ccc(OCc4ccccc4)cc3)c2c1", 5.8]
]}

[P] C1=C(c2ccc3ncnc(Nc4ccc(OCc5ccccc5)cc4)c3c2)OCC1
[Q] CS(=O)(=O)CCNCc1ccc(-c2ccc3ncnc(Nc4ccc5c(cnn5Cc5ccccc5)c4)c3c2)o1 [Example 19, dihydrochloride]
Consider P and Q . Which of these has its IC50 at a higher number? Your choice should be expressed through its label.
P
(P: 4.7 µM, Q: 0.92 µM)

====

- Measurement Target: HB4a cell line transformed by over-expression of c-erbB-2 (Homo sapiens)
- Sequence (P04626 whole entry, change not shown): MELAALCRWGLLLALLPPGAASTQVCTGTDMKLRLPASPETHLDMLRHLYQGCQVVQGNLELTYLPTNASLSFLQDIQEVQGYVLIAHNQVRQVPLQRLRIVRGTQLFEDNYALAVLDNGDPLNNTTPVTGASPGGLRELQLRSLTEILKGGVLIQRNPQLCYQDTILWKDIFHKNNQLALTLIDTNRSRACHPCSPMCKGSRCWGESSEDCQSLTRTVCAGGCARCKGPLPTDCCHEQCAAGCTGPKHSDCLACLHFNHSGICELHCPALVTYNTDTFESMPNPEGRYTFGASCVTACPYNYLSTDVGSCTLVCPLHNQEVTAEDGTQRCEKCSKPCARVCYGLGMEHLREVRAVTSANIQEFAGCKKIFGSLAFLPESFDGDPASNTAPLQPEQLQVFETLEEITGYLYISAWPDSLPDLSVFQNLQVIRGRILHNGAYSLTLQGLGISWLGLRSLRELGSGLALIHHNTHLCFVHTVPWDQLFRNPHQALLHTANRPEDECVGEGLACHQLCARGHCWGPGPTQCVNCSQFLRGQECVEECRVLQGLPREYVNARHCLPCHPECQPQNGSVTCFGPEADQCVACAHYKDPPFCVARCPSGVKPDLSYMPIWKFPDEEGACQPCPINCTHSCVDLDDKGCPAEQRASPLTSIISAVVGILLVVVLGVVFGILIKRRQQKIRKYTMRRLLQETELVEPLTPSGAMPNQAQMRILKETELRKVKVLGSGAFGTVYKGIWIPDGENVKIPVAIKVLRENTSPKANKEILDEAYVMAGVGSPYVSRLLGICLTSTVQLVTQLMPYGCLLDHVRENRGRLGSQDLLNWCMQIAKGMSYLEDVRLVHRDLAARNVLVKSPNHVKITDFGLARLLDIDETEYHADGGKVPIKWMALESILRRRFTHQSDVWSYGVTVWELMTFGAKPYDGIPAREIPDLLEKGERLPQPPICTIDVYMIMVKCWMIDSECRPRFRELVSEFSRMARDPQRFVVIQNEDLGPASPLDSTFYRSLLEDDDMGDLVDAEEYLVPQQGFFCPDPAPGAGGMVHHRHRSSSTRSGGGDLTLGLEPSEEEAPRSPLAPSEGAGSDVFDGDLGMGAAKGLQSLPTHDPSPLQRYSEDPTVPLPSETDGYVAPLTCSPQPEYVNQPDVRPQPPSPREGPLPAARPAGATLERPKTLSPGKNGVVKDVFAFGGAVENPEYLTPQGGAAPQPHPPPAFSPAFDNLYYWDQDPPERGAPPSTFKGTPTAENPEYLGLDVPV
- Assay Text: Cell proliferation assay, HB4a erbB-2
- Format: cell-based
- Setup Conditions: 4 days at 37° C., methylene blue staining; read-out: Cell Proliferation HB4a erbB-2
Counter-ions that a name gives are not always drawn.
Measure: GI50 (µM)

Some solved entries appear below for comparison.
{"columns": ["Compound", "GI50 [µM]"],
 "data": [
  ["c1ccc(COc2ccc(Nc3ncnc4ccc(-c5ccc(CNc6cccnc6)o5)cc34)cc2)cc1 [Example 14]", 0.68],
  ["NC(=O)[C@@H]1CCCN1Cc1ccc(-c2ccc3ncnc(Nc4ccc5c(cnn5Cc5ccccc5)c4)c3c2)o1 [Example 18, dihydrochloride]", 0.009],
  ["Cc1nocc1-c1ccc2ncnc(Nc3ccc(OCc4ccccc4)cc3)c2c1 [Example 85]", 2.1],
  ["Cc1nc(-c2ccc3ncnc(Nc4ccc5c(cnn5Cc5ccccc5)c4)c3c2)no1 [Example 61]", 0.5],
  ["c1ccc(COc2ccc(Nc3ncnc4ccc(-c5cccs5)cc34)cc2)cc1 [Example 2]", 1],
  ["Cc1nnc(-c2ccc3ncnc(Nc4ccc5c(cnn5Cc5ccccn5)c4)c3c2)o1 [Example 23, hydrochloride]", 31],
  ["CN(CCS(C)(=O)=O)Cc1ccc(-c2ccc3ncnc(Nc4ccc(OCc5ccccc5)cc4)c3c2)o1 [Example 48]", 0.08],
  ["Cc1nnc(-c2ccc3ncnc(Nc4ccc5c(cnn5Cc5ccccc5F)c4)c3c2)o1 [Example 21, hydrochloride]", 2.3]
]}

[a] CCN(CCN(C)C)Cc1ccc(-c2ccc3ncnc(Nc4ccc(OCc5ccccc5)cc4)c3c2)o1 [Example 13]
[b] Cc1nnc(-c2ccc3ncnc(Nc4ccc(OCc5ccccc5F)c(Cl)c4)c3c2)o1 [Example 25, hydrochloride]
Could you tell me which of these two has the smaller GI50 figure? First: a Second: b Your choice should be expressed through its label.
a

[1] NS(=O)(=O)CCNCc1ccc(-c2ccc3ncnc(Nc4ccc(OCc5ccccc5)cc4)c3c2)o1 [Example 50]
[2] CS(=O)(=O)Cc1nc(-c2ccc3ncnc(Nc4ccc5c(cnn5Cc5ccccc5)c4)c3c2)no1 [Example 60]
[3] CN1CCN(Cc2ccc(-c3ccc4ncnc(Nc5ccc(OCc6ccccc6)cc5)c4c3)o2)CC1 [Example 10]
[4] Cc1nnc(-c2ccc3ncnc(Nc4ccc(OCc5ccccc5F)cc4)c3c2)o1 [Example 28, hydrochloride]
# rank_down: sort by GI50, max first Hello, could you send the labels back in the order asked? Thank you.
4, 3, 1, 2

[1] c1ccc(COc2ccc(Nc3ncnc4ccc(-c5ccc(CNCC6CCCO6)o5)cc34)cc2)cc1 (stereo not shown) [Example 15, hydrochloride]
[2] CN(C)Cc1nc(-c2ccc3ncnc(Nc4ccc(OCc5ccccc5)cc4)c3c2)no1 [Example 58]
[3] c1ccc(COc2ccc(Nc3ncnc4ccc(-c5ccc(C6OCCO6)o5)cc34)cc2)cc1 [Example 5]
Task for the reader: rank each entry by its GI50, from the minimum upward. Hello, could you send the labels back in the order asked? Thank you.
3, 1, 2

====

- Measurement Target: c-erbB-2 (baculovirus expressed, recombinant intracellular domain) (Homo sapiens, UniProt P04626)
- Construct: baculovirus expressed, recombinant constructs of the intracellular domains of c-erbB-2 and c-erbB-4; made in house
- Assay Text: Substrate phosphorylation assay, c-erbB-2
- Type: biochemical
- Setup Conditions: read-out: Substrate Phosphorylation erbB-2
Structures can show the parent of a compound that is named as a salt.
Measure: IC50 (nM)

Some solved entries appear below for comparison.
{"columns": ["Compound", "Measure", "Unit Label", "Observed Measurement"],
 "data": [
  ["CN1CCN(Cc2ccc(-c3ccc4ncnc(Nc5ccc(OCc6ccccc6)cc5)c4c3)o2)CC1", "IC50", "nM", 52],
  ["NC(=O)[C@@H]1CCCN1Cc1ccc(-c2ccc3ncnc(Nc4ccc(OCc5ccccc5)cc4)c3c2)o1", "IC50", "nM", 36]
]}

[1] c1ccc(COc2ccc(Nc3ncnc4ccc(-c5ccc(CNCC6CCCO6)o5)cc34)cc2)cc1 (stereo not shown) [Example 15, hydrochloride]
[2] Cc1nc(-c2ccc3ncnc(Nc4ccc(OCc5ccccc5)cc4)c3c2)no1
Consider 1 and 2 . Which of these has its IC50 at a higher number? Your choice should be expressed through its label.
2

====

- Measurement Target: c-erbB-4 (baculovirus expressed, recombinant intracellular domain) (Homo sapiens, UniProt Q15303)
- Construct: baculovirus expressed, recombinant constructs of the intracellular domains of c-erbB-2 and c-erbB-4
- Sequence (Q15303 676-1308 limits assumed): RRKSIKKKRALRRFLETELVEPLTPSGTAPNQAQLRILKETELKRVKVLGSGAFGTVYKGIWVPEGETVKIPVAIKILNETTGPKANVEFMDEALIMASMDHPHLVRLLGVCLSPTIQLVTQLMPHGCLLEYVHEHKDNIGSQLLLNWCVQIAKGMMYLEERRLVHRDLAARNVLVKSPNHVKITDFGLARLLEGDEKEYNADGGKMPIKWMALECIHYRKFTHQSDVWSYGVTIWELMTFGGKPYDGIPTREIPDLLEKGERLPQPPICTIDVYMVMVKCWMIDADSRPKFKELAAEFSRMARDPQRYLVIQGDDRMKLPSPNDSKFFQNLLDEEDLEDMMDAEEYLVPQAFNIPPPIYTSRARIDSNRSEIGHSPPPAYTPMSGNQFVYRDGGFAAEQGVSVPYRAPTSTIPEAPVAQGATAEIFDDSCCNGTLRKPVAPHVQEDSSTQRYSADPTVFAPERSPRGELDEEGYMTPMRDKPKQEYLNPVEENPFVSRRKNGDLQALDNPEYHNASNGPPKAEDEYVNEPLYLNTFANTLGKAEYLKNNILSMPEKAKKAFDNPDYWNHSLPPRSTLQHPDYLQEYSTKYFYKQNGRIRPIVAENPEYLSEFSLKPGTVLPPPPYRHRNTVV
- Assay Text: Substrate phosphorylation assay, c-erbB-4
Counter-ions that a name gives are not always drawn.
Measure: IC50 (µM)

{"columns": ["Compound", "IC50 [µM]"],
 "data": [
  ["Cn1cncc1-c1ccc2ncnc(Nc3ccc4c(cnn4Cc4ccccc4)c3)c2c1", 0.52],
  ["Cc1noc(-c2ccc3ncnc(Nc4ccc5c(cnn5Cc5ccccc5)c4)c3c2)n1 [Example 55, hydrochloride]", 1]
]}

[1] CN(CCS(C)(=O)=O)Cc1ccc(-c2ccc3ncnc(Nc4ccc(OCc5ccccc5)cc4)c3c2)o1
[2] Cc1cc(-c2ccc3ncnc(Nc4ccc(OCc5ccccc5)cc4)c3c2)on1 [Example 47, hydrochloride]
Could you tell me which of these two has the smaller IC50 figure? First: 1 Second: 2 Your choice should be expressed through its label.
1

====

- System: BT474-breast tumour cell line
- Assay Text: Cell proliferation assay, BT474
- Type: cell-based, human
- Setup Conditions: Homo sapiens, BT-474, 96 h; same methodology, 4 days
Structures can show the parent of a compound that is named as a salt.
Measure: IC50 (nM)

Some solved entries appear below for comparison.
{"columns": ["Molecule", "IC50, nM"],
 "data": [
  ["NC(=O)[C@@H]1CCCN1Cc1ccc(-c2ccc3ncnc(Nc4ccc5c(cnn5Cc5ccccc5)c4)c3c2)o1 [Example 18, dihydrochloride]", 2],
  ["Cc1nnc(-c2ccc3ncnc(Nc4ccc5c(cnn5Cc5ccccc5)c4)c3c2)o1 [Example 41, hydrochloride]", 260],
  ["Cc1nnc(-c2ccc3ncnc(Nc4ccc5c(cnn5Cc5cccc(F)c5)c4)c3c2)o1 [Example 22, hydrochloride]", 97],
  ["Cn1cncc1-c1ccc2ncnc(Nc3ccc(OCc4ccccc4)cc3)c2c1", 1900]
]}

[A] CS(=O)(=O)CCNCc1ccc(-c2ccc3ncnc(Nc4ccc5c(cnn5Cc5ccccc5)c4)c3c2)o1 [Example 19, dihydrochloride]
[B] NC(=O)[C@@H]1CCCN1Cc1ccc(-c2ccc3ncnc(Nc4ccc(OCc5ccccc5)cc4)c3c2)o1
Could you tell me which of these two has the smaller IC50 figure? First: A Second: B Your choice should be expressed through its label.
A
